- target system: activated human MMP13 (human, UniProt P45452 104-471)
- method notes: cell-based or functional assay
value type: potency, human fluorogenic peptide assay (nM)
Expressed in nM, but write only the number.

Task item: Requested field: potency, human fluorogenic peptide assay. Item: C010100726 (bispecific antibody) EVQLVESGGGLVQPGGSLRLSCAASGRTFSSYAMGWFRQAPGKEREFVAAISWSGGSTYYADSVKGRFTISRDNSKNTVYLQMNSLRPEDTAVYYCTAALAVYGPSRYRYGPVGEYQYWGQGTLVTVSSGGGGSGGGGSGGGGSGGGGSGGGGSGGGGSGGGGSEVQLVESGGGLVQPGGSLRLSCAASGSTFSRYSMNWYRQAPGKQREFVAGISVGRITNYAVSVKGRFTISRDNSKNTVYLQMNSLRPEDTAVYYCNAGGLQGYWGQGTLVTVSS
Reply: 0.0671

Task item: Form field: reported potency, human fluorogenic peptide assay of C010100689 (bispecific antibody) EVQLVESGGGLVQPGGSLRLSCAASGFAFSAAYMSWVRQAPGKGLEWVSSISDDGSKTYYADSVKGRFTISRDNSKNTVYLQMNSLRPEDTAVYYCNTGYGATTTRPGRYWGQGTLVTVSSGGGGSGGGGSGGGGSGGGGSGGGGSGGGGSGGGGSEVQLVESGGGLVQPGGSLRLSCAASGSTFIINVVRWYRRAPGKQRELVATISSGGNANYVDSVRGRFTISRDNSKNTVYLQMNSLRPEDTAVYYCNVPTTHYGGVYYGPYWGQGTLVTVSS
Reply: 1.91

Task item: # query: potency, human fluorogenic peptide assay of entry C010100727 (bispecific antibody) EVQLVESGGGLVQPGGSLRLSCAASGRTFSSYAMGWFRQAPGKEREFVAAISWSGGSTYYADSVKGRFTISRDNSKNTVYLQMNSLRPEDTAVYYCTAALAVYGPSRYRYGPVGEYQYWGQGTLVTVSSGGGGSGGGGSGGGGSGGGGSGGGGSGGGGSGGGGSEVQLVESGGGLVQPGGSLRLSCAASGSTFSRYSMNWYRQAPGKQREFVAGISVGRITNYAVSVKGRFTISRDNSKNTGYLQMNSLRPEDTAVYYCNAGGLQGYWGQGTLVTVSS
Reply: 0.134
